measurement.target: human CCR8 (human, UniProt P51685 1-355)
experiment.description: cell-based or functional assay
measurement.label: extrapolated top plateau of hCCL1 curve with 5 µg/mL mAb, protocol #3

# query: extrapolated top plateau of hCCL1 curve with 5 µg/mL mAb, protocol #3 of entry anti-CCR8 mAb 1-18 (antibody, V domains shown, Murine hybridoma mAb) VH: QVQVQQSGAELARPGASVKMSCKASGYTFTTYAMHWVKQRPGQGLEWIGHINPSSGYSNYNQKFKDKATLTADKSSSTAYMQLSSLTSEDSAVYYCARSEVRRGYFDVWGAGTTVTVSS VL: DIQMTQTTSSLSASLGDRVTISCRTSQDIRNYLNWYQQKPDGTVKLLISYTSRLHSGVPSRFSGSGSGTDYSLTISNLEQEDFATYFCQQGNTLPPTFGGGTRVEIK
948 % of hCCL1 (100 nM)

Next:
Look at this binder and give its reported extrapolated top plateau of hCCL1 curve with 5 µg/mL mAb, protocol #3. anti-CCR8 mAb 1-12 (antibody, V domains shown, Murine hybridoma mAb) VH: EVQLVETGGGLVQPKGSLKLSCAASGFTFNANAMNWVRQAPGKGLEWVARIRSKSNNYATYYADSVKDRFTISRDDSQSMLYLQMNNLKTEDTAMYYCVRGSDNYIFYAMDYWGQGTSVTVSS VL: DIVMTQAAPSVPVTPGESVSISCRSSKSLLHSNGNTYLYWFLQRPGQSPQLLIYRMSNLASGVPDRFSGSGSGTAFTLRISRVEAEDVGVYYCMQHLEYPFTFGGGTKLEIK
805000 % of hCCL1 (100 nM)

Which extrapolated top plateau of hCCL1 curve with 5 µg/mL mAb, protocol #3 value belongs to anti-CCR8 mAb 1-5 (antibody, V domains shown, Murine hybridoma mAb) VH: QVQLKESGPGLVAPSQSLSITCTVSGLSMNDYVVTWIRQPPGKGLEWLGVIWGGGNTYYNSDLKSRLSITKDNSKSQVFFKMSSLQTDDTAVYYCARRHRDYALDYWGQGISVTVSS VL: DVVMTQTPLSLPVSLGDQASISCRSSQSLVYSNGNTYLHWYLQKPGQSPKLLIYKVSNRFSGVPDRFSGSGSGTDFTLKISRVEAEDLGVYFCSQSTYVPPTFGGGTKLEIK ?
133 % of hCCL1 (100 nM)

What does the data say about its extrapolated top plateau of hCCL1 curve with 5 µg/mL mAb, protocol #3? Entry: anti-CCR8 mAb 1-11 (antibody, V domains shown, Murine hybridoma mAb) VH: QVQLQQPGAELVKPGASVKMSCKATGYTFTGYNMHWVKQTPGQGLEWIGAISPGKGDTSYNLKFKGKATLTTDKSSSTAYMQLSSLTSADSAVYYCARSGGTPFAYWGQGTLVTVSA VL: DVVMTQTPLSLPVSLGDQASISCRSSQSLVHSNGDTYLYWYLQKPGQSPKLLIYKVSNRFSGVPDRFSGSGSGTDFTLKINRVEAEDLGVYFCSQSTHVPYTFGGGTKLEIK
2880 % of hCCL1 (100 nM)

Name the recorded extrapolated top plateau of hCCL1 curve with 5 µg/mL mAb, protocol #3 for anti-CCR8 mAb 1-6 (antibody, V domains shown, Murine hybridoma mAb) VH: EVQLQQSGPELLKPGTSVKISCTTSGYTFSDYTLHWVKQSHGKSLEWIGGITPKNGDTRYDPRFKDKATLTIDKSSSAAYMELRSLTSEDSAVYYCARVARFYGVSPYAMDYWGQGASVTVSS VL: DVVMTQTPLSLPVSLGDQASISCRCTQSLLHSNGDTYLHWYLQKPGQSPKLLIYKVSNRFSGVPDRFSGSGSGTDFTLEITRVEAEDLGVYFCSQTTHVPYTFGGGTKLEIK .
667000 % of hCCL1 (100 nM)

These measurements were taken from patent US20260132208A1.
